Every entry's value here was drawn from paper PMC11401214.

Molecular target: tdTomato
Assay: SPR; Biacore 8K; antigen immobilised on CM5 chip by amine coupling at 1 ug/ml (tdTomato) or 5 ug/ml (GST, IgGs) in 10 mM sodium acetate pH 5.5; nanobody injected in single-cycle kinetics at 0.1-10 nM; 20 mM Na-Hepes pH 7.4, 150 mM NaCl, 0.05% Tween 20; Langmuir 1:1 model, RIgG-1 and GIgG-4 fit to a two-step binding model
Please respond with reported pKd for every item in the list.
Keep in mind that pKd stands for -log10 of concentration in molar terms.

In plain terms, LaTdT-2 (VHH) VHH: DVQLVESGGGLVQAGDSLRLSCAFSGSAFDTYAMGWFRQAPGKEREFVSAITWSGGNTYYADSAKGRFTISRDDAKNTVYLQMNSLKPEDAATYYCAANRYGSSWSPLTKMGQYEHWGQGTQVTVS has a documented pKd of 11.46

In plain terms, LaTdT-10 (VHH) VHH: DVQLVESGGRLVQDGGSLRLSCEVSGGTFDTFAMGWFRQAPGKEREFVSAITWSGGNTYYGDSVKGRFTISRNNVKRTVYLQMISLKPEDTGVYYCAADPYGSSWSPLQKEGQYDYWGQGTQVTVS has a documented pKd of 10.28

In plain terms, LaTdT-44 (VHH) VHH: QVQLVESGGRLVQDGGSLRLSCEVSGGTFDTFAMGWFRQAPGKEREFVSAITWSGGNTYYGDSVKGRFTISRNNVKRTVYLQMISLKPEDTGVYYCAADPYGSSWSPLQKEGQYDYWGQGTQVTVS has a documented pKd of 10.36

In plain terms, LaTdT-45 (VHH) VHH: QVQLVESGGGLVQAGDSLRLSCAFSGSAFDTYAMGWFRQAPGKEREFVSAITWSGGNTYYADSAKGRFTISRDDAKNTVYLQMNSLKPEDAATYYCAANRYGSSWSPLTKMGQYEHWGQGTQVTVS has a documented pKd of 10.55

In plain terms, LaTdT-38 (VHH) VHH: QVQLVESGGGLVQAGGSLRLSCAASGRSFSGNNMGWFRQVSGTEREFVAAISWSGLITEYSGAVKGRFTISRDNAKNTLYLQMNSLKPEDTAVYSCAADGRDVQLPGRSEYDYNYWGQGTQVTVS has a documented pKd of 10.24

In plain terms, LaTdT-9 (VHH) VHH: QVQLVESGGGLVQPGDSLMLSCVISGHTFTNFRMGWFRQAPGKEREFVAGITWLFGRTDYADSVQGRFTISRDKGKDTMYLQMDSLKPEDTGVYTCAVQSGVLAYPMREGFYDIWGQGTHVTVS has a documented pKd of 10.08

In plain terms, LaTdT-8 (VHH) VHH: QVQLVESGGGLVQAGDSLRLSCADAGLPYAFNHYGMAWFRQAPGKEREFVAGTSGGMTYYGDSVPDRFSFSRDNDKKTVHLHINSLKPEDTAVYYCAARLGGRYEDASDYDVWGQGTQVTVS has a documented pKd of 10.43

In plain terms, LaTdT-39 (VHH) VHH: QVQLVESGGGLVQAGESLQLSCAASGGTLRDAIVGWFRQARGKEREFLASITWSGLSTNYSDSVKGRFVISRANPQNTAYLQMNSLKPEDTAIYYCAAKIGAFGLADEFRTVPQYDSWGQGTQVTVS has a documented pKd of 11.23
